# measurement_target: KRAS G12D (Homo sapiens (Human), UniProt P01116, G12D)
# Sequence (P01116-2 other isoform, or with tags, fused parts or gaps G12D): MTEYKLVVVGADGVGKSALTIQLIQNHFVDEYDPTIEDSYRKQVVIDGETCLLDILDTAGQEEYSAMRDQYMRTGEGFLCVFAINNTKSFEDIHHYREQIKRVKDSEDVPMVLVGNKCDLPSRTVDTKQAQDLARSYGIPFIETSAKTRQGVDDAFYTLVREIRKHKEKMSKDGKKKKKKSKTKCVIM
# assay_comment: KRAS G12D RAF Disruption Assay (HTRF)
# Type: biochemical
# stated_conditions: recombinant GMPPNP-loaded KRAS G12D (5 nM), GST-RAF1 RBD (9 nM), HTRF signal
Provide the recorded KRASG12D RAF Disruption Assay (IC50, µM) for the entries that follow.
Please reply with the bare figure in µM and do not write the unit itself.

Missing value: KRASG12D RAF Disruption Assay (IC50, µM), KRAS G12D (Homo sapiens (Human), UniProt P01116, G12D), entry Oc1cc(-c2ccc3c(N4CC[C@H]5CC[C@@H](C4)N5)nc(OC[C@@]45CCCN4C[C@H](F)C5)nc3c2F)c2ccccc2c1 [Example 11-7] . Fill in? 5.1

Next: Oc1cc(-c2c(Cl)cc3c(N4CC[C@H]5CC[C@@H](C4)N5)nc(OC[C@]45CCCN4C[C@@H](F)C5)nc3c2F)c2ccccc2c1 (single isomer, unassigned) [Example 8-9] 0.7

Next: Cc1cc(N)nc(-c2c(Cl)cc3c(N4CC[C@H]5CC[C@@H](C4)N5)nc(OC[C@@]45CCCN4C[C@@H](F)C5)nc3c2F)c1C(F)(F)F [Example 5] 2.87

Next: CCc1cccc2cccc(-c3ccc4c(N5CC[C@H]6CC[C@@H](C5)N6)nc(OC[C@@]56CCCN5C[C@H](F)C6)nc4c3F)c12 [Example 11-8] 54.4

Next: C#Cc1c(F)ccc2cc(O)cc(-c3ccc4c(N5CC[C@H]6CC[C@@H](C5)N6)nc(OC[C@@]56CCCN5C[C@H](F)C6)nc4c3F)c12 [Example 11-6] 0.17

Next: Cc1cc(N)nc(-c2c(Cl)cc3c(N4CC[C@H]5CC[C@@H](C4)N5)nc(OC[C@]45CCCN4C[C@H](F)C5)nc3c2F)c1C(F)(F)F [Example 4-3] 0.52

Next: Cc1cc(N)nc(-c2c(Cl)cc3c(N4CC[C@H]5CC[C@@H](C4)N5)nc(OCC4(CN5CCCC(F)C5)CC4)nc3c2F)c1C(F)(F)F (stereo partly shown) [Example 10-9] 51.0

Next: CCc1cccc2cc(O)cc(-c3c(Cl)cc4c(N5CC[C@H]6CC[C@@H](C5)N6)nc(OC[C@]56CCCN5C[C@@H](F)C6)nc4c3F)c12 (single isomer, unassigned) [Example 8-3] 17.3

====

# measurement_target: KRAS G12D (Homo sapiens (Human), UniProt P01116, G12D)
# assay_comment: KRAS G12D RAF Disruption Assay (HTRF)
# Type: biochemical
# stated_conditions: recombinant GMPPNP-loaded KRAS G12D (5 nM), GST-RAF1 RBD (9 nM), HTRF signal
measured_property: KRASG12D RAF Disruption Assay (IC50, µM)

Can you share its KRASG12D RAF Disruption Assay (IC50, µM)? I mean this compound: "Cc1cc(N)nc(-c2c(Cl)cc3c(N4CC[C@H]5CC[C@@H](C4)N5)nc(OC[C@@]45C[C@@H](F)CN4CC4(CC4)C5)nc3c2F)c1C(F)(F)F" 220 nM

Next: "Oc1cc(-c2c(Cl)cc3c(N4CC[C@H]5CC[C@@H](C4)N5)nc(OC[C@]45CCCN4C[C@H](F)C5)nc3c2F)c2ccccc2c1" 480 nM

Next: "CN1CCC[C@H]1COc1nc(N2CCN3CCC2CC3)c2cc(Cl)c(-c3cc(O)cc4ccccc34)c(F)c2n1" >100000 nM
